The measurements presented in this section are drawn from patent US20050196808A1.

- Target: Plk-1 Polo-box Domain (PBD, residues 326-603) (human) (UniProt P53350)
- Sequence (P53350 326-603): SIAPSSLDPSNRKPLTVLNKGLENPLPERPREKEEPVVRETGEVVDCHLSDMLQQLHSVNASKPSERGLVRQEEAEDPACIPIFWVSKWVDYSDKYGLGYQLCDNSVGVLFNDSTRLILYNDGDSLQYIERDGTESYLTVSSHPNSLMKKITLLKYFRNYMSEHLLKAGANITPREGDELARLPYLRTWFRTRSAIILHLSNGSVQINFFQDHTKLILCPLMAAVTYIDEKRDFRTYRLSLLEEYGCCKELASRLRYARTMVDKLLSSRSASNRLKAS
- Assay remarks: isothermal titration calorimetry
Readout: Kd (nM)
# output: bare number, implied unit nM

Given PoloBoxtide-optimal, MAGPMQ-S-pT-P-LNGAKK (peptide) , report its Kd on Plk-1 Polo-box Domain (PBD, residues 326-603) (human) (UniProt P53350).
280
